# credit: patent US20180355059A1

# OD450 nm per record follows
Biological target: T1, recombinant human PCSK9-His protein (Immunogen A) (human, UniProt Q8NBP7 31-692, limits assumed, biotinylated in the ELISA assays)
T1 construct: also called hPCSK9-His; His-tagged hPCSK9; not shown: His tag
Test: ELISA of PCSK9 binding to LDLR ECD; antibody 1.6 nM
OBSERVED PROPERTY: OD450 nm (OD450 nm)

BINDER | OBSERVED PROPERTY | MEASUREMENT UNITS | ENDPOINT VALUE
76A1B11, fully human anti-PCSK9 antibody (antibody, human IgG1, V domains shown) VH: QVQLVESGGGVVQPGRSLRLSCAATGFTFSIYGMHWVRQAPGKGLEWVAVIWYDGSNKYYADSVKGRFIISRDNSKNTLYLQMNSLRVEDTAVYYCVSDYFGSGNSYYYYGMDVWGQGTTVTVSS VL: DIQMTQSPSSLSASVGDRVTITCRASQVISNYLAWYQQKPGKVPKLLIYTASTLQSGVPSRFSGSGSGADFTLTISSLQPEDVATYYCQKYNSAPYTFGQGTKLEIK | OD450 nm | OD450 nm | 2.19
139G1C5, fully human anti-PCSK9 antibody (antibody, human IgG1, V domains shown) VH: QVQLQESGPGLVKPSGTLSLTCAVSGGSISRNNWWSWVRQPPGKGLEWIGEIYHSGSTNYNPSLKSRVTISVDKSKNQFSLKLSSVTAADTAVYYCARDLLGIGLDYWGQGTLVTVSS VL: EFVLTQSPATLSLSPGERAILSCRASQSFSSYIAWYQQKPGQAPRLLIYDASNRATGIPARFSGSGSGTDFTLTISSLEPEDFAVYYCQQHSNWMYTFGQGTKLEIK | OD450 nm | OD450 nm | 2.16
74C10A8, fully human anti-PCSK9 antibody (antibody, human IgG1, V domains shown) VH: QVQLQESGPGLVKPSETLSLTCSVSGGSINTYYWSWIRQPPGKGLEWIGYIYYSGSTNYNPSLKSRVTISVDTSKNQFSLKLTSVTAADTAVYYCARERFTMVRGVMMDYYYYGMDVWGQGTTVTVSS VL: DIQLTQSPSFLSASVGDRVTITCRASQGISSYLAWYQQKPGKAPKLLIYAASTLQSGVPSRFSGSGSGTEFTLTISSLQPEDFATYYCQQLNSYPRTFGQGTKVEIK | OD450 nm | OD450 nm | 2.19
152G2F7, fully human anti-PCSK9 antibody (antibody, human IgG1, V domains shown) VH: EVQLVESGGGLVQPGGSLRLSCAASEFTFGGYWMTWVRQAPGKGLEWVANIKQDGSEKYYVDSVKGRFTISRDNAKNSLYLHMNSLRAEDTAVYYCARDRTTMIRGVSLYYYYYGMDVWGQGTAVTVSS VL: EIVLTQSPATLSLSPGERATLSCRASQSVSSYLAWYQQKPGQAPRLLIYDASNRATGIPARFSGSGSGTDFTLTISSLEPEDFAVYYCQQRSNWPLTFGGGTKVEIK | OD450 nm | OD450 nm | 2.19
